Target: MAP2K6 (human)
Experiment: KINOMEscan competition binding
Details: compound 10.0 µM
Entries and their kinase still bound, per cent of control values follow.

# CHEMICAL_STRUCTURE, UNIT_INFO, kinase still bound, per cent of control
records = [
    ("CN1C(=O)c2ccccc2N(C)c2nc(Nc3ccc(N4CCC(O)CC4)cc3)ncc21", "%", 100),
    ("COc1cc(N2CCC(O)CC2)ccc1Nc1ncc2c(n1)N1CCc3cccc(c31)C(=O)N2C", "%", 100),
    ("COc1cc(N2CCN(C)CC2)ccc1Nc1ncc2c(n1)Nc1ccccc1NC2=O", "%", 97),
    ("COc1cc(N2CCN(C)CC2)ccc1Nc1ncc2c(n1)N(C)c1sccc1C(=O)N2C", "%", 100),
    ("CN1CCN(c2ccc(C(=O)Nc3ncc4c(n3)N(C)c3ccccc3C(=O)N4C)cc2)CC1", "%", 100),
]

----------
Target: DAPK1 (human) (UniProt P53355)
Sequence (P53355 whole entry, looked up): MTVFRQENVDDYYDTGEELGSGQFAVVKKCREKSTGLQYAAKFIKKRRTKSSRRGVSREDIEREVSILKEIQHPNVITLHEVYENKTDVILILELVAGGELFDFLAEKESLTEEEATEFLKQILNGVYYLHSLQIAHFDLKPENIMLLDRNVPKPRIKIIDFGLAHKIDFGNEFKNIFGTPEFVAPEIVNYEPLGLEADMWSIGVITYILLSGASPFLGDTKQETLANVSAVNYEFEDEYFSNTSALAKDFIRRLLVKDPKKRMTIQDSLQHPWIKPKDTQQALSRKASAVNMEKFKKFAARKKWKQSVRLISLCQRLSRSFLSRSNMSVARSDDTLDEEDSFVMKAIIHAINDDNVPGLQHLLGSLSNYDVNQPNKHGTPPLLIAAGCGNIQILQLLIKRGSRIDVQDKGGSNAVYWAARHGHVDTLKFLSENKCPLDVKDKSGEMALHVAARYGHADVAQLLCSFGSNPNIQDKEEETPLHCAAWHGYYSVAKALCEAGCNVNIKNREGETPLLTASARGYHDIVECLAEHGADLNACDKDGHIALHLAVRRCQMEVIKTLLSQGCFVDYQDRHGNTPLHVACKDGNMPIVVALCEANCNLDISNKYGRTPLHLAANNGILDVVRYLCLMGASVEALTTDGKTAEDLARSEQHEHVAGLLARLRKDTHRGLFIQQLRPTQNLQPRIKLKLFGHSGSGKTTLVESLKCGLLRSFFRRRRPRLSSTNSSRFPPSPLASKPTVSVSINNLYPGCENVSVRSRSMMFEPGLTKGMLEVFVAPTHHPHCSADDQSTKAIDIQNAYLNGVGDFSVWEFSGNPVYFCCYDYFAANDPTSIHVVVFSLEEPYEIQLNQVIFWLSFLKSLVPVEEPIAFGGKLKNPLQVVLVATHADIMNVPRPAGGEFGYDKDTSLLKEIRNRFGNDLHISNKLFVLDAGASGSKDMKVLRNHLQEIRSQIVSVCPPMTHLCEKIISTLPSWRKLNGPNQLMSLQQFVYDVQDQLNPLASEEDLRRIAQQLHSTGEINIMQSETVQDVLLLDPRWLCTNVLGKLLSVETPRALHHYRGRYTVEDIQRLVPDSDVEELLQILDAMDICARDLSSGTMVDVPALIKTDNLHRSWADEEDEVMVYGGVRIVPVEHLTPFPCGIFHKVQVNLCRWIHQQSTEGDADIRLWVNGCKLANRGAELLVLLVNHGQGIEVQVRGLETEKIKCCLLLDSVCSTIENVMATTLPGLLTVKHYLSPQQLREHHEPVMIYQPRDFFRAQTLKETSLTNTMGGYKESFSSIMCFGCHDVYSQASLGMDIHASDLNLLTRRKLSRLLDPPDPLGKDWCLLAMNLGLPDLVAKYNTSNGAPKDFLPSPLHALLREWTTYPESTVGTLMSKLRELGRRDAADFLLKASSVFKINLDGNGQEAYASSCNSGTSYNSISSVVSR
Assay: KINOMEscan competition binding
Conditions: compound 10.0 µM
Recorded kinase still bound, per cent of control by entry

# COMPOUND, MEASURED_ON, UNIT_INFO, kinase still bound, per cent of control
rows = [
    ("N=C1NC(=O)/C(=C/c2c[nH]c(=O)c(-c3ccc4cc[nH]c4c3)c2)S1", "DAPK1 (human) (UniProt P53355)", "%", 9.7),
    ("COc1cc(N2CCN(C)CC2)ccc1Nc1ncc2c(n1)N(C)c1ccccc1N(C)C2=O", "DAPK1 (human) (UniProt P53355)", "%", 82),
    ("O=C1NC(=O)/C(=C/c2cc(-c3ccc(N4CCNCC4)nc3)c[nH]c2=O)S1", "DAPK1 (human) (UniProt P53355)", "%", 4.4),
    ("CN1C(=O)[C@H]2CCC[C@H]2N(C2CCCC2)c2nc(Nc3ccc(C(N)=O)cc3)ncc21", "DAPK1 (human) (UniProt P53355)", "%", 3.2),
    ("N=C1NC(=O)/C(=C/c2ccc(-c3ccc(S(N)(=O)=O)cc3)o2)S1", "DAPK1 (human) (UniProt P53355)", "%", 3.5),
    ("N=C1NC(=O)/C(=C/c2ccc(-c3ccc(C(=O)Nc4ccc(N5CCNCC5)cc4)cc3O)o2)S1", "DAPK1 (human) (UniProt P53355)", "%", 12),
    ("O=C1NC(=O)/C(=C/c2c[nH]c(=O)c(-c3ccc(N4CCNCC4)nc3)c2)S1", "DAPK1 (human) (UniProt P53355)", "%", 0.35),
    ("CN1CCN(c2ccc(C(=O)Nc3ncc4c(n3)N(C)c3ccccc3C(=O)N4C)cc2)CC1", "DAPK1 (human) (UniProt P53355)", "%", 84),
    ("N=C1NC(=O)/C(=C/c2ccc(-c3csc4ccccc34)o2)S1", "DAPK1 (human) (UniProt P53355)", "%", 15),
    ("N=C1NC(=O)/C(=C/c2ccc(-c3ccc(F)cc3O)o2)S1", "DAPK1 (human) (UniProt P53355)", "%", 8.3),
    ("CS(=O)(=O)Nc1ccc(-c2ncc(/C=C3\\SC(=N)NC3=O)s2)cc1", "DAPK1 (human) (UniProt P53355)", "%", 4),
    ("COc1cc(N2CCN(C)CC2)ccc1Nc1ncc2c(n1)N(C)c1sccc1C(=O)N2C", "DAPK1 (human) (UniProt P53355)", "%", 58),
    ("CN1C(=O)c2ccccc2N(C)c2nc(NS(=O)(=O)c3ccc(N)cc3)ncc21", "DAPK1 (human) (UniProt P53355)", "%", 100),
    ("COc1cc(N2CCN(C)CC2)ccc1Nc1ncc2c(n1)Nc1ccccc1NC2=O", "DAPK1 (human) (UniProt P53355)", "%", 64),
    ("N=C1NC(=O)/C(=C/c2ccc(-c3ccccc3O)o2)S1", "DAPK1 (human) (UniProt P53355)", "%", 7.6),
    ("COc1cc(C(=O)NC2CCN(C)CC2)ccc1Nc1ncc2c(n1)N(C1CCCC1)CC(C)C(=O)N2C (stereo not given)", "DAPK1 (human) (UniProt P53355)", "%", 7.2),
    ("COc1cc(C(=O)NC2CCN(C)CC2)ccc1Nc1ncc2c(n1)N(C1CCCC1)C(C)CC(=O)N2C (stereo not given)", "DAPK1 (human) (UniProt P53355)", "%", 26),
    ("COc1cc(C(=O)NC2CCN(C)CC2)ccc1Nc1ncc2c(n1)N(C1CCC(O)CC1)CCC(=O)N2C (stereo not given)", "DAPK1 (human) (UniProt P53355)", "%", 8.2),
    ("N=C1NC(=O)/C(=C/c2c[nH]c(=O)c(-c3ccc(N4CCNCC4)nc3)c2)S1", "DAPK1 (human) (UniProt P53355)", "%", 2.7),
    ("COc1cc(C(=O)NC2CCN(C)CC2)ccc1Nc1ncc2c(n1)N(C1CCCC1)CCC(=O)N2C", "DAPK1 (human) (UniProt P53355)", "%", 4),
]

----------
Target: BMPR1A (human)
Experiment: KINOMEscan competition binding
Details: compound 10.0 µM
QUANTITY_KIND: kinase still bound, per cent of control (%)

# CHEMICAL_STRUCTURE, RESULT
data = [
    ("CN1CCN(c2ccc(C(=O)Nc3ncc4c(n3)N(C)c3ccccc3C(=O)N4C)cc2)CC1", 100),
    ("CS(=O)(=O)Nc1ccc(-c2cncc(/C=C3\\SC(=N)NC3=O)c2)cc1", 0.95),
    ("COc1cc(N2CCN(C)CC2)ccc1Nc1ncc2c(n1)N(C)c1sccc1C(=O)N2C", 100),
    ("CN1C(=O)c2ccccc2N(C)c2nc(NS(=O)(=O)c3ccc(N)cc3)ncc21", 90),
    ("COc1cc(N2CCC(O)CC2)ccc1Nc1ncc2c(n1)N1CCc3cccc(c31)C(=O)N2C", 100),
    ("COc1cc(N2CCN(C)CC2)ccc1Nc1ncc2c(n1)N(C)c1ccccc1N(C)C2=O", 100),
]

----------
Target: DAPK2 (human) (UniProt Q9UIK4)
Sequence (Q9UIK4 whole entry, looked up): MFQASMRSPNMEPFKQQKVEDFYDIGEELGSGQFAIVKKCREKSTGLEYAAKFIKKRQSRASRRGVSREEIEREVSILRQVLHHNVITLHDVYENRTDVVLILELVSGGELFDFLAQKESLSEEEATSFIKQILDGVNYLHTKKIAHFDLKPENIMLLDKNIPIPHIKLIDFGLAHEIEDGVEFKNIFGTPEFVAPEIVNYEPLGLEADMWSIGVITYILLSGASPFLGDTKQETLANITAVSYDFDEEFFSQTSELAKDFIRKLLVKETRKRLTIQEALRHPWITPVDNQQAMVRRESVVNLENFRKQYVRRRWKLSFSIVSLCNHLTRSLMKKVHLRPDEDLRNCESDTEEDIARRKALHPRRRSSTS
Assay: KINOMEscan competition binding
Conditions: compound 10.0 µM
Label key: true (1) means kinase still bound, per cent of control under 10%; false (0) means kinase still bound, per cent of control of 10% or more.

# CHEMICAL_STRUCTURE, MEASURED_ON, DISCRETE_LABEL
records = [
    ("CSC1=NC(=O)/C(=C/c2c[nH]c(=O)c(-c3ccc(NS(C)(=O)=O)cc3)c2)S1", "DAPK2 (human) (UniProt Q9UIK4)", "true (1)"),
    ("Nc1cccc(-c2cc(/C=C3\\SC(=O)NC3=O)c[nH]c2=O)c1", "DAPK2 (human) (UniProt Q9UIK4)", "true (1)"),
    ("N=C1NC(=O)/C(=C/c2ccc(-c3ccc(C(=O)Nc4ccc(N5CCNCC5)cc4)cc3O)o2)S1", "DAPK2 (human) (UniProt Q9UIK4)", "false (0)"),
    ("COc1cc(N2CCN(C)CC2)ccc1Nc1ncc2c(n1)Nc1ccccc1NC2=O", "DAPK2 (human) (UniProt Q9UIK4)", "false (0)"),
    ("COc1cc(C(=O)NC2CCN(C)CC2)ccc1Nc1ncc2c(n1)N(C1CCCC1)CCC(=O)N2C", "DAPK2 (human) (UniProt Q9UIK4)", "false (0)"),
    ("O=C1NC(=S)S/C1=C\\c1ccc(-c2cncc3ccccc23)o1", "DAPK2 (human) (UniProt Q9UIK4)", "true (1)"),
    ("N=C1NC(=O)/C(=C/c2ccc(-c3cncc4ccccc34)o2)S1", "DAPK2 (human) (UniProt Q9UIK4)", "true (1)"),
    ("COc1cc(N2CCC(O)CC2)ccc1Nc1ncc2c(n1)N(C1CCCC1)CCC(=O)N2C", "DAPK2 (human) (UniProt Q9UIK4)", "false (0)"),
    ("COc1cc(N2CCC(C)(O)CC2)ccc1Nc1ncc2c(n1)N(C1CCCC1)CCC(=O)N2C", "DAPK2 (human) (UniProt Q9UIK4)", "false (0)"),
    ("N=C1NC(=O)/C(=C/c2ccc(-c3csc4ccccc34)o2)S1", "DAPK2 (human) (UniProt Q9UIK4)", "false (0)"),
]

----------
# kinase still bound, per cent of control annotations
Biological target: FRK (human) (UniProt P42685)
Sequence (P42685 whole entry, looked up): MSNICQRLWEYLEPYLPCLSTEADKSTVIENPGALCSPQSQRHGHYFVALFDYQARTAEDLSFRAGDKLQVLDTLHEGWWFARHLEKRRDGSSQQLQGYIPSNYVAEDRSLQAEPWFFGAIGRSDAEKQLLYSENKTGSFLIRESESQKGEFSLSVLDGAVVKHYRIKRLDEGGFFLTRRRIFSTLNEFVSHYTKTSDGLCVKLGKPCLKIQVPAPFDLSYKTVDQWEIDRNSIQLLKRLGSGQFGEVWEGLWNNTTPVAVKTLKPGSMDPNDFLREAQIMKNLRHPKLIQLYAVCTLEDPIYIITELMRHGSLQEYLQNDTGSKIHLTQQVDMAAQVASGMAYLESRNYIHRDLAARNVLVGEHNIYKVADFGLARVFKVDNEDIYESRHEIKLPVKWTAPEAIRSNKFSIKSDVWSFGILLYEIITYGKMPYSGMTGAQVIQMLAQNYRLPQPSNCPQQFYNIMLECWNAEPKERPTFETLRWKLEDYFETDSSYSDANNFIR
Assay: KINOMEscan competition binding
Details: compound 10.0 µM

# COMPOUND, kinase still bound, per cent of control (%)
measured = [
    ("COc1cc(N2CCC(N3CCN(C)CC3)CC2)ccc1Nc1ncc2c(n1)N(C1CCCC1)C(C)CC(=O)N2 (stereo not drawn)", 16),
    ("COc1cc(N2CCN(C)CC2)ccc1Nc1ncc2c(n1)Nc1ccccc1NC2=O", 93),
    ("COc1cc(N2CCC(O)CC2)ccc1Nc1ncc2c(n1)N1CCc3cccc(c31)C(=O)N2C", 81),
    ("COc1cc(N2CCN(C)CC2)ccc1Nc1ncc2c(n1)N(C)c1ccccc1C(=O)N2", 0.8),
    ("CN1C(=O)c2ccccc2N(C)c2nc(NS(=O)(=O)c3ccc(N)cc3)ncc21", 100),
    ("COc1cc(N2CCN(C)CC2)ccc1Nc1ncc2c(n1)N(C1CCCC1)C(C)CC(=O)N2 (stereo not drawn)", 7),
    ("COc1cc(N2CCC(O)CC2)ccc1Nc1ncc2c(n1)N(C)c1ccccc1C(=O)N2C", 11),
    ("COc1cc(N2CCN(C)CC2)ccc1Nc1ncc2c(n1)N(C)c1ccccc1N(C)C2=O", 51),
]
